The entries below come with measured EC50 values attached.
study_target: EGFR InsGY Ba/F3 cell line (Homo sapiens, UniProt P00533, DELINS770-770GY, cells depend on it)
Sequence (P00533 with tags, fused parts or gaps DELINS770-770GY): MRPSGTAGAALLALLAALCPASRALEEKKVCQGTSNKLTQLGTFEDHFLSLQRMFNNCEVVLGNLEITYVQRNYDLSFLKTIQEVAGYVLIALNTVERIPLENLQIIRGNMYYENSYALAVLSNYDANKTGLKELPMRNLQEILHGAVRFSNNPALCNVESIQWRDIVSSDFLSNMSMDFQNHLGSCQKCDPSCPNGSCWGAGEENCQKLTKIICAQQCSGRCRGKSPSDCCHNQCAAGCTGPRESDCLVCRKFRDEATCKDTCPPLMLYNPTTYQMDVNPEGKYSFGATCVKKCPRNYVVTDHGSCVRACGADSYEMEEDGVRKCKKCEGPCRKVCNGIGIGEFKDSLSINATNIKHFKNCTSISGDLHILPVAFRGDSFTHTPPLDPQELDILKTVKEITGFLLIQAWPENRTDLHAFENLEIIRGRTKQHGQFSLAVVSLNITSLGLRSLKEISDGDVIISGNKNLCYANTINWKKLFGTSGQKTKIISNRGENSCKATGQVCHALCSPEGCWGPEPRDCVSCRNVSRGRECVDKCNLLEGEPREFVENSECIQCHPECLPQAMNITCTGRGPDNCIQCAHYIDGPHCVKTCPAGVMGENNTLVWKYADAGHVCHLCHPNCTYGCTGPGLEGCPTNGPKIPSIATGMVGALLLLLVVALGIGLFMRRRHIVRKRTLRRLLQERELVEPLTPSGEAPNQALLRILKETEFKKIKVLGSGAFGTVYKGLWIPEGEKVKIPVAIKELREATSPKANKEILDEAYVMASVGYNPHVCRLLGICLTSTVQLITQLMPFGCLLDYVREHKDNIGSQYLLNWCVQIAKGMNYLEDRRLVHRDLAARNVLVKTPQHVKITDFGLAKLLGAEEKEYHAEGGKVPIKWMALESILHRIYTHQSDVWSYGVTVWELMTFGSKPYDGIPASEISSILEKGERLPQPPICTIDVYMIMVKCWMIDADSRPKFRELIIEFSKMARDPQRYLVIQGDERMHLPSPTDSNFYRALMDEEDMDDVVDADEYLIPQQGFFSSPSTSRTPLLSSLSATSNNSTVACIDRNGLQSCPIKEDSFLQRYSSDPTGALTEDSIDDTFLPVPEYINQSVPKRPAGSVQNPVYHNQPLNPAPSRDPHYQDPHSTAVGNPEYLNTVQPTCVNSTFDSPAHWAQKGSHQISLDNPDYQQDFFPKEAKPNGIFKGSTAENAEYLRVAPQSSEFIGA
protocol_text: Ba/F3 cell proliferation MTS assay, EGFR InsGY
reported_conditions: EGFR InsGY (D770delinsGY) Ba/F3 cells, 72 hours

// known answers, use as guide
C=CC(=O)Nc1cccc(N(C(=O)OCc2ccc(F)nc2)c2ccnc(Nc3ccn(C)n3)n2)c1    500 to 1000 nM
C=CC(=O)Nc1cccc(N(C(=O)OCc2ccc(F)cc2F)c2ccnc(Nc3cnn(C)c3)n2)c1    < 100 nM
C=CC(=O)Nc1cccc(N(C(=O)OCc2cccc(F)c2)c2ccnc(Nc3cnn(C)c3)n2)c1    < 100 nM
C=CC(=O)Nc1cccc(N(C(=O)O[C@H](C)c2ccc(F)cc2)c2ccnc(Nc3ccn(C)n3)n2)c1    500 to 1000 nM
C=CC(=O)Nc1cccc(N(C(=O)OCc2csc3ccccc23)c2ccnc(Nc3cnn(C)c3)n2)c1    > 1000 nM

stdin: Please give the measured EC50 for this compound: `C=CC(=O)Nc1cccc(N(C(=O)OCc2ccc(F)cn2)c2ccnc(Nc3ccn(C)n3)n2)c1`
stdout: 500 to 1000 nM

stdin: Please give the measured EC50 for this compound: `CN(C)C/C=C/C(=O)Nc1cccc(N(C(=O)OCc2ccc(F)cc2)c2ccnc(Nc3cnn(C)c3)n2)c1`
stdout: 500 to 1000 nM

====

study_target: EGFR InsASV Ba/F3 cell line (Homo sapiens, UniProt P00533, DUP767-769, cells depend on it)
Sequence (P00533 with tags, fused parts or gaps DUP767-769): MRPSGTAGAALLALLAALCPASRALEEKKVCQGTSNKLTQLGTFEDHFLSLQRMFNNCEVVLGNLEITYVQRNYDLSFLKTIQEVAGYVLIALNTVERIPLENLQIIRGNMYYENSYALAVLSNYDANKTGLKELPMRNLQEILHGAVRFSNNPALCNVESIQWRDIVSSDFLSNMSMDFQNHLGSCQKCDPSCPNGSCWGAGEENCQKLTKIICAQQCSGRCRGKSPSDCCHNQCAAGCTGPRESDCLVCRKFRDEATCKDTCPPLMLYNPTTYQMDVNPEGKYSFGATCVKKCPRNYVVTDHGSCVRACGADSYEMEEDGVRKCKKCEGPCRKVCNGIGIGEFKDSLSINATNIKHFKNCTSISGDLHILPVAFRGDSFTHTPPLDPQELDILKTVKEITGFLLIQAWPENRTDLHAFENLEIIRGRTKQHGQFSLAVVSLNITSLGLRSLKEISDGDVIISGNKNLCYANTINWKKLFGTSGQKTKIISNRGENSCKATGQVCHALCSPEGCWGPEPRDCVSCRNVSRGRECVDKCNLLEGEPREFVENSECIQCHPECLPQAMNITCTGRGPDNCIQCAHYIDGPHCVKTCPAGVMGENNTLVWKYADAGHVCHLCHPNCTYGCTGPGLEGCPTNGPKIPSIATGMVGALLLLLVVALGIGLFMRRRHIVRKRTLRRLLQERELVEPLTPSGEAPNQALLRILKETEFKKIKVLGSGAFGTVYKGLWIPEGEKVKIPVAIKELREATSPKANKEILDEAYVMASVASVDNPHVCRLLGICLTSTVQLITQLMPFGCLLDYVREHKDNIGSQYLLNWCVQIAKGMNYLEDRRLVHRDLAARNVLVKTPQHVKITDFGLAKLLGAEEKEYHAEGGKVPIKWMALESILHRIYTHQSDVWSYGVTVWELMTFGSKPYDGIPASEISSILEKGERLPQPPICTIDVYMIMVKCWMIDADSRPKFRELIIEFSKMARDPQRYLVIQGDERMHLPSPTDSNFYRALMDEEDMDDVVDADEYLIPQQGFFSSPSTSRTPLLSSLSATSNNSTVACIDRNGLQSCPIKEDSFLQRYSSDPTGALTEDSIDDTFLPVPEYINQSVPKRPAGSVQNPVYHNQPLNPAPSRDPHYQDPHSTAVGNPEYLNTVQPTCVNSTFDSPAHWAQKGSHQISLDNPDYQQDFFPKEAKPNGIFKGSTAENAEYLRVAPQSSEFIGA
protocol_text: Ba/F3 cell proliferation MTS assay, EGFR InsASV
reported_conditions: EGFR InsASV (V769_D770insASV) Ba/F3 cells, 72 hours
measurement_label: EC50

// known answers, use as guide
C=CC(=O)Nc1cccc(N(C(=O)OCc2ccc(F)nc2)c2ccnc(Nc3cnn(C)c3)n2)c1 [Compound I-13]    > 1000 nM
C=CC(=O)Nc1cccc(N(C(=O)O[C@H](C)c2ccc(F)cc2)c2ccnc(Nc3cnn(C)c3)n2)c1 [Compound I-15]    100 to 500 nM
C=CC(=O)Nc1cccc(N(C(=O)OCc2ccc(F)cn2)c2ccnc(Nc3ccn(C)n3)n2)c1 [Compound I-10]    500 to 1000 nM

stdin: Enter reported EC50 observed with EGFR InsASV Ba/F3 cell line (Homo sapiens, UniProt P00533, DUP767-769, cells depend on it) for C=CC(=O)Nc1cccc(N(C(=O)OCc2ccccc2)c2ccnc(Nc3ccn(C)n3)n2)c1 [Compound I-1]
stdout: 100 to 500 nM

====

The entries below come with measured EC50 values attached.
study_target: EGFR InsGY Ba/F3 cell line (Homo sapiens, UniProt P00533, DELINS770-770GY, cells depend on it)
protocol_text: Ba/F3 cell proliferation MTS assay, EGFR InsGY
Assay type: cell-based, Murine
reported_conditions: EGFR InsGY (D770delinsGY) Ba/F3 cells, 72 hours

// known answers, use as guide
C=CC(=O)Nc1cccc(N(C(=O)OCc2ccc(F)cc2)c2ccnc(Nc3cnn(C)c3C(F)(F)F)n2)c1 [Compound I-23]    100 to 500 nM
C=CC(=O)Nc1cccc(N(C(=O)OCc2ccc(F)nc2)c2ccnc(Nc3cnn(C)c3)n2)c1 [Compound I-13]    > 1000 nM
Cn1cc(Nc2nccc(N(C(=O)OCc3ccc(F)cc3)c3cccc(NC(=O)/C=C/CN4CCCCC4)c3)n2)cn1 [Compound I-24]    100 to 500 nM
C=CC(=O)Nc1cccc(N(C(=O)OCc2cc3ccccc3s2)c2ccnc(Nc3cnn(C)c3)n2)c1 [Compound I-7]    < 100 nM
Cn1cc(Nc2nccc(N(C(=O)OCc3ccc(F)cc3)c3cccc(NC(=O)/C=C/CN4CCOCC4)c3)n2)cn1 [Compound I-26]    100 to 500 nM

stdin: Please give the measured EC50 for this compound: C=CC(=O)Nc1cccc(N(C(=O)O[C@@H](C)c2ccc(F)cc2)c2ccnc(Nc3ccn(C)n3)n2)c1 [Compound I-16]
stdout: 100 to 500 nM

stdin: Please give the measured EC50 for this compound: C=CC(=O)Nc1cccc(N(C(=O)OCc2ccc(F)cc2)c2ccnc(Nc3cnn(C4CCN(C)CC4)c3)n2)c1 [Compound I-30]
stdout: < 100 nM

src = patent US10550112B2
